- Procedure Summary: Food effect (high-fat breakfast) on RBN-3143 pharmacokinetics, cross-over
- Format: in vivo, human
- Details: human, plasma, po, 500 mg, single 500 mg oral dose, fed (high-fat breakfast), N=13; read-out: AUCinf, mean (SD)
- Procedure: Analytes were separated by HPLC on a Waters Atlantis T3 analytical column using a gradient mobile phase (mobile phase A: 10% acetonitrile, 90% water, 10 mM ammonium acetate, 0.3% formic acid; mobile phase B: 90% acetonitrile, 10% water, 10 mM ammonium acetate, 0.3% formic acid) run at 0.4 mL/min with initial mobile phase B concentration of 30%.
Readout Kind: AUC(0-inf) (ng·h/mL)
# value in ng·h/mL; strip the unit string

Give me measured AUC(0-inf), please, for this compound: CC(=O)N1CCC(COc2cc(F)c3c(=O)[nH]c(CSC4CCOCC4)nc3c2)CC1 19600

====

- Procedure Summary: Single ascending dose (SAD) pharmacokinetics in healthy volunteers
- Format: in vivo, human
- Details: human, plasma, po, 50 mg, single oral dose 50 mg, plasma; read-out: AUCinf, geometric mean (Geo CV%)
Readout Kind: AUC(0-inf) (ng·h/mL)
API: value field is a number in ng·h/mL; no unit string.

Let me know recorded AUC(0-inf) for CC(=O)N1CCC(COc2cc(F)c3c(=O)[nH]c(CSC4CCOCC4)nc3c2)CC1 [RBN‐3143] , thanks. 1540

====

- Procedure Summary: Multiple ascending dose (MAD) pharmacokinetics in healthy volunteers, BID for 14 days
- Assay type: in vivo, human
- Details: human, plasma, oral, 150 mg, 150 mg BID, Day 14, plasma; read-out: Tmax, median [min-max]
Readout Kind: Tmax (h)
Give the quantity in h, number only.

Input CC(=O)N1CCC(COc2cc(F)c3c(=O)[nH]c(CSC4CCOCC4)nc3c2)CC1 , output reported Tmax. 2.5

====

- Procedure Summary: Food effect (high-fat breakfast) on RBN-3143 pharmacokinetics, cross-over
- Type: in vivo, human
- Details: human, plasma, po, 500 mg, single 500 mg oral dose, fasted, N=13; read-out: AUCinf, mean (SD)
Readout Kind: AUC(0-inf) (ng·h/mL)
Your answer should be a plain number; it is taken to be in ng·h/mL.

Provide AUC(0-inf) value for the following compound: CC(=O)N1CCC(COc2cc(F)c3c(=O)[nH]c(CSC4CCOCC4)nc3c2)CC1 13800

====

- System: CYP3A4
- Procedure Summary: clinical
- Details: human, in vivo, po, 2 mg, AUClast, GLSM, midazolam 2 mg single oral dose without RBN-3143 (day 1), N=12
Readout Kind: AUC(0-t) (ng·h/mL)
Express it in ng·h/mL; write the number only.

Fetch value of AUC(0-t) on CYP3A4 for Cc1ncc2n1-c1ccc(Cl)cc1C(c1ccccc1F)=NC2 . 19.8

====

- Procedure Summary: Single ascending dose (SAD) pharmacokinetics in healthy volunteers
- Assay type: in vivo, human
- Details: human, plasma, po, 150 mg, single oral dose 150 mg, plasma; read-out: Cmax, mean (SD)
Readout Kind: Cmax

Identify Cmax associated with the compound CC(=O)N1CCC(COc2cc(F)c3c(=O)[nH]c(CSC4CCOCC4)nc3c2)CC1 0.668 µg/mL

====

- Procedure Summary: Pantoprazole (PPI) effect on RBN-3143 pharmacokinetics, cross-over
- Format: in vivo, human
- Details: human, plasma, po, 500 mg, single 500 mg oral dose, fasted without pantoprazole; read-out: AUClast, mean (SD)
Readout Kind: AUC(0-t)
For clarity, give the value followed by its unit.

Give recorded AUC(0-t). CC(=O)N1CCC(COc2cc(F)c3c(=O)[nH]c(CSC4CCOCC4)nc3c2)CC1 13300 ng·h/mL
